The measurements presented in this section are drawn from patent US6914045B2.

As shown below, each of these molecules has a reported MIC Coagulase Negative Staphylococcus (GC 4549) value.
- Test system: Staphylococcus sp.
- experiment: in vitro antibacterial evaluation, MIC by broth dilution
- Type: cell-based
- condition: broth dilution, 18 hours at 35° C.
I only need the number, in µg/mL, no unit after it.

A selection of reference data follows.
molecule | value observed
CC(c1ccccc1)C1NC(=O)CNC(=O)C(CO)NC(=O)C(C(O)C2CN(c3ncccn3)C(=N)N2C2OC(CO)C(O)C(O)C2O)NC(=O)C(C(O)C2CNC(=Nc3ncccn3)N2)NC(=O)C(Cc2ccc(OC3OC(CO)C(OC4OC5COC6(OC5C(O)C4O)C4CC5CC(C4)CC6C5)C(O)C3O)cc2)NC1=O (centres unmarked) | 16
CCC(CC)C1OCC2OC(OC3C(CO)OC(Oc4ccc(CC5NC(=O)C(C(C)c6ccccc6)NC(=O)CNC(=O)C(CO)NC(=O)C(C(O)C6CNC(=N)N6C6OC(CO)C(O)C(O)C6O)NC(=O)C(C(O)C6CNC(=N)N6)NC5=O)cc4)C(O)C3O)C(O)C(O)C2O1 (centres unmarked) | 1
CCC(C)C(=O)OC1C(CO)OC(OC2C(CO)OC(Oc3ccc(CC4NC(=O)C(C(C)c5ccccc5)NC(=O)CNC(=O)C(CO)NC(=O)C(C(O)C5CNC(=N)N5C5OC(CO)C(O)C(O)C5O)NC(=O)C(C(O)C5CNC(=N)N5)NC4=O)cc3)C(O)C2O)C(O)C1O (centres unmarked) [Example 278c] | 2
CC(C)CC(=O)OC1C(O)C(CO)OC(OC2C(CO)OC(Oc3ccc(CC4NC(=O)C(C(C)c5cccc(F)c5)NC(=O)CNC(=O)C(CO)NC(=O)C(C(O)C5CNC(=N)N5C5OC(CO)C(O)C(O)C5O)NC(=O)C(C(O)C5CNC(=N)N5)NC4=O)cc3)C(O)C2O)C1O (centres unmarked) [Example 264b] | 4

Here is the next item to consider.
Ask | What measured MIC Coagulase Negative Staphylococcus (GC 4549) goes with CC(c1ccccc1)C1NC(=O)CNC(=O)C(CO)NC(=O)C(C(O)C2CNC(=N)N2C2OC(CO)C(O)C(O)C2O)NC(=O)C(C(O)C2CNC(=N)N2)NC(=O)C(Cc2ccc(OC3OC(CO)C(OC4OC(COCC=Cc5ccccc5)C(O)C(O)C4O)C(O)C3O)cc2)NC1=O (centres unmarked) ?
Reply | 4

* * *

- Test system: Enterococcus sp.
- experiment: in vitro antibacterial evaluation, MIC by broth dilution
- Type: cell-based
- condition: broth dilution, inoculum 5×10^5 CFU/mL, 18 hours at 35° C.; strain GC 4557
- From the text: Methods for in vitro Antibacterial Evaluation (Table 1) […]
experimental endpoint: MIC Enterococcus faecium (GC 4557) (µg/mL)
Enter your answer as a number in µg/mL; do not include the unit.

Observe how each entry below is paired with its result.
compound | experimental endpoint | measure unit | value observed
CC(c1ccccc1)C1NC(=O)CNC(=O)C(CO)NC(=O)C(C(O)C2CNC(=N)N2C2OC(CO)C(O)C(O)C2O)NC(=O)C(C(O)C2CNC(=N)N2)NC(=O)C(Cc2ccc(OC3OC(CO)C(OC4OC5COC(c6cccc(-c7ccccc7)c6)OC5C(O)C4O)C(O)C3O)cc2)NC1=O (stereo not drawn) [Example 154] | MIC Enterococcus faecium (GC 4557) | µg/mL | 2
COc1ccc(Oc2cccc(C3OCC4OC(OC5C(CO)OC(Oc6ccc(CC7NC(=O)C(C(C)c8ccccc8)NC(=O)CNC(=O)C(CO)NC(=O)C(C(O)C8CNC(=N)N8C8OC(CO)C(O)C(O)C8O)NC(=O)C(C(O)C8CNC(=N)N8)NC7=O)cc6)C(O)C5O)C(O)C(O)C4O3)c2)cc1 (stereo not drawn) [Example 180] | MIC Enterococcus faecium (GC 4557) | µg/mL | 2

Please turn your attention to the following entry.
Ask | What value of MIC Enterococcus faecium (GC 4557) has been reported for the following compound? CC(c1ccccc1)C1NC(=O)CNC(=O)C(CO)NC(=O)C(C(O)C2CNC(=N)N2C2OC(CO)C(O)C(O)C2O)NC(=O)C(C(O)C2CNC(=N)N2)NC(=O)C(Cc2ccc(OC3OC(CO)C(OC4OC5COC(c6ccc(Oc7ccc(C(C)(C)C)cc7)cc6)OC5C(O)C4O)C(O)C3O)cc2)NC1=O (stereo not drawn) [Example 181]
Reply | 4
